Known MAC Deposition, 20% Serum EC50 of a selection of binders
Target: Human Factor P (human, UniProt P27918 29-469)
Sequence (P27918 29-469 limits assumed): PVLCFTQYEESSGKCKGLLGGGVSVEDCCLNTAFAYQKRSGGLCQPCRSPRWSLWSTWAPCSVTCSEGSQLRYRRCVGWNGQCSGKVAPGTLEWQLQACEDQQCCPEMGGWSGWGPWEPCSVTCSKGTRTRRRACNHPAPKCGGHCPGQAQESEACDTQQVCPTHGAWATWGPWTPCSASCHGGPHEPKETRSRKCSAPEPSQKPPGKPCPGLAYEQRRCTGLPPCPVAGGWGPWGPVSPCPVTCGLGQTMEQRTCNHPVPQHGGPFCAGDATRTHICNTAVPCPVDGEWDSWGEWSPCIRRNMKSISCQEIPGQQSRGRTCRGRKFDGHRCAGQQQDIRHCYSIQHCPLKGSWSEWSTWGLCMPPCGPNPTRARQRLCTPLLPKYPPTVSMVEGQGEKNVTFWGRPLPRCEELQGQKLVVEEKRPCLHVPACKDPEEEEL
Assay: cell-based or functional assay
State the answer as a number, implicitly in nM.

See these solved cases before continuing.
binder	MAC Deposition, 20% Serum EC50 / nM
NVS965-T (Fab, V domains shown, NVS965 with heavy chain N30 replaced with threonine) VH: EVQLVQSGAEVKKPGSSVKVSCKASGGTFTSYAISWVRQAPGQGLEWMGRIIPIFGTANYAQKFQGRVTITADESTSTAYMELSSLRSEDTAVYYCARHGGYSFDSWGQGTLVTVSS VL: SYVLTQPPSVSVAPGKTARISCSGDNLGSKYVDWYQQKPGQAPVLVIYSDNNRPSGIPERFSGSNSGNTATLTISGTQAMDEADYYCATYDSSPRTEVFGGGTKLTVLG	13.8
NVS965-S (Fab, V domains shown, NVS965 with heavy chain N30 replaced with serine) VH: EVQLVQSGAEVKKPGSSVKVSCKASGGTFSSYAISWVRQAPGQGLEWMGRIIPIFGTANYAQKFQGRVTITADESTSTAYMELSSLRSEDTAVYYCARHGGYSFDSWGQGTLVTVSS VL: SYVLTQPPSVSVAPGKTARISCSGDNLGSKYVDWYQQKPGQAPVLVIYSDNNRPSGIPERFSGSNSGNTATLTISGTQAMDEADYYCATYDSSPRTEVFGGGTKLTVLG	7.32
NVS965-Q (Fab, V domains shown, NVS965 with heavy chain N30 replaced with glutamine) VH: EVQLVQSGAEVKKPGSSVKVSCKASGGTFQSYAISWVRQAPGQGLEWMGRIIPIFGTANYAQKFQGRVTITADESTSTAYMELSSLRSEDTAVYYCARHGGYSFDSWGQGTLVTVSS VL: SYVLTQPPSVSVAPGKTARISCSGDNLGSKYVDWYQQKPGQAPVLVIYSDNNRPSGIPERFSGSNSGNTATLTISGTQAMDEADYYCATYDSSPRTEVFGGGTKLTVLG	15.4
NVS962-Q (Fab, V domains shown, NVS962 with heavy chain N30 replaced with glutamine (deamidation site removed)) VH: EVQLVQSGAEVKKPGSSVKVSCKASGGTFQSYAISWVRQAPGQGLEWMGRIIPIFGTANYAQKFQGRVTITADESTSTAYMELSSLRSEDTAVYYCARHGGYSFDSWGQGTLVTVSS VL: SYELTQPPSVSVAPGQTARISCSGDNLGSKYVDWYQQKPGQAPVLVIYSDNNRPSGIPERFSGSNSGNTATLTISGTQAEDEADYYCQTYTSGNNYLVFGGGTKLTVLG	23.1

Pending binder:
Could you share which MAC Deposition, 20% Serum EC50 value was measured for NVS965 (Fab, V domains shown, Disulfide-bridged Fab; also called Fab NVS965) VH: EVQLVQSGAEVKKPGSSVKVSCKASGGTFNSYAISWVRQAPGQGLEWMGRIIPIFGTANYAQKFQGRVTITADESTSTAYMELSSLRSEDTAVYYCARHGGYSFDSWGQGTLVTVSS VL: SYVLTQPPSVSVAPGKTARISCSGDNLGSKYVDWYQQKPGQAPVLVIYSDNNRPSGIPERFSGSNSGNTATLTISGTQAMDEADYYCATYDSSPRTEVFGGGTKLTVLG ? 17.3
